Hey, just so you know, these numbers are from PubChem BioAssay (Tox21).

# assay-overview: qHTS assay to identify small molecule antagonists of the androgen receptor (AR) signaling pathway - cell viability counter screen (AID 743033; further: nearly all actives have a fitted effect of over 45% in size)
# condition-context: AR-bla HEK293 viability, CellTiter-Glo luminescence, 16 h; series mostly up to 58.5 µM
Results filed as inconclusive are left out. Calls of active or inactive are those of the source. The call rests on the fitted dose curve; in most records, active means well fitted cell-killing curve with a large enough effect in the repeat runs; inconclusive means weak or mixed curves; inactive means no such curve, though single readings can be large or run the other way.
Outcome codes: active, inactive

{"compound": "CCC1COC(Cn2cncn2)(c2ccc(Cl)cc2Cl)O1 (stereo not drawn)", "assigned-label": "inactive"}
{"compound": "CN(C)CCc1c[nH]c2ccccc12", "assigned-label": "inactive"}
{"compound": "COc1nc(C)nc(NC(=O)NS(=O)(=O)c2ccccc2Cl)n1", "assigned-label": "inactive"}
{"compound": "CN=C=O", "assigned-label": "inactive"}
{"compound": "CCC1(CC)C(=O)N=C(O)NC1=O", "assigned-label": "inactive"}
{"compound": "CC(Cc1ccc(O)cc1)NCC(O)c1cc(O)cc(O)c1 (stereo not drawn)", "assigned-label": "inactive"}
{"compound": "Cc1nn(-c2cc(NS(C)(=O)=O)c(Cl)cc2Cl)c(=O)n1C(F)F", "assigned-label": "inactive"}
{"compound": "CCOP(=O)(OCC)Oc1nc(Cl)c(Cl)cc1Cl", "assigned-label": "inactive"}
{"compound": "O=C(O)[C@H](O)[C@@H](O)C(=O)O", "assigned-label": "inactive"}
{"compound": "CCC[CH2][Sn]([CH2]CCC)([CH2]CCC)[CH2]CCC", "assigned-label": "active"}
{"compound": "CCN1CCC2(CC1)COc1cc3c(cc12)N(C(=O)c1ccc(-c2ccc(-c4nnc(C)o4)cc2C)cc1)CC3", "assigned-label": "active"}
{"compound": "c1ccc2nc(N3CCNCC3)ccc2c1", "assigned-label": "inactive"}
{"compound": "C=C(C)C(=O)[O][Sn]([CH2]CCC)([CH2]CCC)[CH2]CCC", "assigned-label": "active"}
{"compound": "BrCC(Br)(Br)Br", "assigned-label": "inactive"}
{"compound": "O=C(NC(=O)c1ccccc1Cl)Nc1ccc(OC(F)(F)F)cc1", "assigned-label": "inactive"}
{"compound": "CC(=O)[O][Pb]([c]1ccccc1)([c]1ccccc1)[c]1ccccc1", "assigned-label": "active"}
{"compound": "C=CC(=O)[O][Sn]([CH2]CCC)([CH2]CCC)[CH2]CCC", "assigned-label": "active"}
{"compound": "CC(=O)[O-].CC(=O)[O-].[Co+2]", "assigned-label": "inactive"}
{"compound": "S=C=Nc1ccccc1", "assigned-label": "inactive"}
{"compound": "CC1(C)[C@H](/C=C2\\CCSC2=O)[C@@H]1C(=O)OCc1coc(Cc2ccccc2)c1", "assigned-label": "inactive"}
{"compound": "CC(C)NCC(O)c1ccccc1Cl (stereo not drawn)", "assigned-label": "inactive"}
{"compound": "CCOC(=O)CCN(SN(C)C(=O)Oc1cccc2c1OC(C)(C)C2)C(C)C", "assigned-label": "inactive"}
{"compound": "Cc1cccc(Cc2cnc[nH]2)c1C", "assigned-label": "inactive"}
{"compound": "Cc1ccc(C)c2ccccc12", "assigned-label": "inactive"}
{"compound": "CC(=O)[O-].CC(=O)[O-].O.O.[Zn+2]", "assigned-label": "inactive"}
{"compound": "C[C@H]1[C@H](c2ccc(Cl)cc2)SC(=O)N1C(=O)NC1CCCCC1", "assigned-label": "inactive"}
{"compound": "COc1ccc2c3c1O[C@H]1[C@H](O)CC[C@H]4[C@@H](C2)N(C)CC[C@@]341", "assigned-label": "inactive"}
{"compound": "Cc1ccn2nc(S(=O)(=O)Nc3c(F)cccc3F)nc2n1", "assigned-label": "inactive"}
{"compound": "ClC1=C(Cl)[C@]2(Cl)[C@@H]3[C@H]4C[C@H]([C@@H]5O[C@H]45)[C@@H]3[C@@]1(Cl)C2(Cl)Cl", "assigned-label": "inactive"}
{"compound": "CCCC[N+]1(C)CCCC1 (tested in a mixture with another compound)", "assigned-label": "inactive"}
{"compound": "N#Cc1c2ccccc2cc2ccccc12", "assigned-label": "inactive"}
{"compound": "OCC(Br)CBr (stereo not drawn)", "assigned-label": "inactive"}
{"compound": "COP(=O)(OC)Oc1ccc([N+](=O)[O-])cc1", "assigned-label": "inactive"}
{"compound": "CCN(CC)C(=O)N[C@@H]1C=C2c3cccc4[nH]cc(c34)C[C@@H]2N(C)C1", "assigned-label": "inactive"}
{"compound": "ClC(Cl)C(Cl)(Cl)Cl", "assigned-label": "inactive"}
{"compound": "CNC(C)(C)Cc1ccccc1", "assigned-label": "inactive"}
{"compound": "N#CC(C#N)=NNc1cccc(Cl)c1", "assigned-label": "active"}
{"compound": "Cc1ccc2cc3c(ccc4ccccc43)c3c2c1CC3", "assigned-label": "inactive"}
{"compound": "CC(Cc1ccc(OCC(=O)O)cc1)NCC(O)c1csc(C(F)(F)F)n1 (stereo not drawn)", "assigned-label": "inactive"}
{"compound": "CSSC", "assigned-label": "inactive"}
{"compound": "CN1C(=O)[C@@H](NC(=O)c2cc3ccccc3[nH]2)N=C(c2ccccc2)c2ccccc21", "assigned-label": "inactive"}
{"compound": "CN1CCc2cc(Cl)c(O)cc2[C@H]2c3ccccc3CC[C@@H]21", "assigned-label": "inactive"}
{"compound": "CC[C@H](C)[C@H]1O[C@]2(C=C[C@@H]1C)C[C@@H]1C[C@@H](C/C=C(\\C)[C@@H](O[C@H]3C[C@H](OC)[C@@H](O[C@H]4C[C@H](OC)[C@@H](NC)[C@H](C)O4)[C@H](C)O3)[C@@H](C)/C=C/C=C3\\CO[C@@H]4[C@H](O)C(C)=C[C@@H](C(=O)O1)[C@]34O)O2", "assigned-label": "active"}
